system-tested: GABA-A receptor; alpha-1/beta-3/gamma-2 (Homo sapiens, UniProt P14867+P18507+P28472)
Sequence (P14867 whole entry, one chain of several): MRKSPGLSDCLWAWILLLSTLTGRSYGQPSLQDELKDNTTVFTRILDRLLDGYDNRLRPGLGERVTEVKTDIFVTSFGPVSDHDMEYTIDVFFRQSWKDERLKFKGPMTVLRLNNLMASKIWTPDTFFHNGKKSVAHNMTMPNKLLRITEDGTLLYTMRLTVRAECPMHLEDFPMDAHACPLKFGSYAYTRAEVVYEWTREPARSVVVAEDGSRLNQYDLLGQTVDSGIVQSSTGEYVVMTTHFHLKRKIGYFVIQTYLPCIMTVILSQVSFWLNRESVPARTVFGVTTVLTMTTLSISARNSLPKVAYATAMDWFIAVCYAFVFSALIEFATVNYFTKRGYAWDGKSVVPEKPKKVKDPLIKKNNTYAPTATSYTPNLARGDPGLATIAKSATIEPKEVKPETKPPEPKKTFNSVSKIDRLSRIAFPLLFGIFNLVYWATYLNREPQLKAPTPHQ
protocol-summary: Binding affinity to human gamma-aminobutyric-acid A receptor alpha-1-beta-3-gamma-2, determined using [3H]-Ro- 15-1788 radioligand
Binary call on Ki with cut-off 70 nM: strictly below means satisfied, and equality or higher means not satisfied.

1) CSc1sc(-c2ccccc2)c2c1C(=O)CC(C)(C)C2; not satisfied
2) CC1(C)CC(=O)c2c(NCCO)sc(-c3cc[nH]n3)c2C1; not satisfied
3) COc1sc(-c2cc[nH]n2)c2c1C(=O)CC(C)(C)C2; not satisfied
4) CC1(C)CC(=O)c2c(Sc3nccs3)sc(-c3cc[nH]n3)c2C1; satisfied
5) CC1(C)CC(=O)c2c(Sc3cccs3)sc(-c3cc[nH]n3)c2C1; satisfied
6) CSc1sc(-c2ccc[nH]2)c2c1C(=O)CC(C)(C)C2; not satisfied
7) CC1(C)CC(=O)c2csc(-c3cc[nH]n3)c2C1; not satisfied
8) CSc1sc(-c2nc(C)no2)c2c1C(=O)CC(C)(C)C2; not satisfied
9) CSc1sc(-c2ncn(C)n2)c2c1C(=O)CC(C)(C)C2; not satisfied
10) CC1(C)CC(=O)c2c(SC(C)(C)C)sc(-c3cc[nH]n3)c2C1; not satisfied
11) CCc1sc(-c2cc[nH]n2)c2c1C(=O)CC(C)(C)C2; not satisfied
12) CNc1sc(-c2cc[nH]n2)c2c1C(=O)CC(C)(C)C2; not satisfied
13) CC(C)Oc1sc(-c2cc[nH]n2)c2c1C(=O)CC(C)(C)C2; not satisfied
14) CCCSc1sc(-c2cc[nH]n2)c2c1C(=O)CC(C)(C)C2; satisfied
15) CC1(C)CC(=O)c2c(SCCCO)sc(-c3nccs3)c2C1; not satisfied
16) CC1(C)CC(=O)c2c(Sc3nccs3)sc(-c3nccs3)c2C1; satisfied
17) CCCCSc1sc(-c2cc[nH]n2)c2c1C(=O)CC(C)(C)C2; satisfied
18) CSc1sc(-c2cncs2)c2c1C(=O)CC(C)(C)C2; not satisfied
19) CC1(C)CC(=O)c2c(SCCCO)sc(-c3cc[nH]n3)c2C1; satisfied

###

system-tested: Gamma-aminobutyric acid receptor subunit alpha-5 (Homo sapiens)
Sequence (whole entry): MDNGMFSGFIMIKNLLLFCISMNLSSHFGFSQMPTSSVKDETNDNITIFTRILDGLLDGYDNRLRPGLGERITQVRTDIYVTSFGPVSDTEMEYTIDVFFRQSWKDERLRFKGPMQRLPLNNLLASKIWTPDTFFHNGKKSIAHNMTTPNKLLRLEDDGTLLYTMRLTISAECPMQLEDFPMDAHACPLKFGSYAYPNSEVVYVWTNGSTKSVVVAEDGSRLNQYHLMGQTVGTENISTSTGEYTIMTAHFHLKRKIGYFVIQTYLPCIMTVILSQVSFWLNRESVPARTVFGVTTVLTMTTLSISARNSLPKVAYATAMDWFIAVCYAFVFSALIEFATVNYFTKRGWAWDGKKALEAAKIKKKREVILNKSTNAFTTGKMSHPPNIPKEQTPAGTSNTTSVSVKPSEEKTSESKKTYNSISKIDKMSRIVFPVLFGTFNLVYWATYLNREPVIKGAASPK
protocol-summary: Binding selectivity for human gamma-aminobutyric-acid A receptor alpha-5 over GABA A alpha1,alpha2 and alpha-3 receptors
Here the recorded Selectivity is given for each entry.
measured-metric: Selectivity

1) CCCCSc1sc(-c2cc[nH]n2)c2c1C(=O)CC(C)(C)C2; 10
2) CC1(C)CC(=O)c2c(NCCO)sc(-c3cc[nH]n3)c2C1; > 4
3) CC1(C)CC(=O)c2c(SCCO)sc(-c3ccccn3)c2C1; 20
4) CC1(C)CC(=O)c2c(SCCO)sc(-c3cc[nH]n3)c2C1; 11

###

system-tested: GABA-A receptor; anion channel
protocol-summary: Binding affinity for GABA-A Benzodiazepine receptor
pKi: −log10 of the molar value.
measured-metric: pKi

1) CC(=O)c1cc2c(s1)CCCC1=C2NN(c2ccc(Cl)cc2)C(=O)C1; 8.38

###

Here the recorded log10 of Ki is given for each entry.
system-tested: GABA-A receptor; alpha-2/beta-3/gamma-2 (Homo sapiens, UniProt P18507+P28472+P47869)
Sequence (P18507 whole entry): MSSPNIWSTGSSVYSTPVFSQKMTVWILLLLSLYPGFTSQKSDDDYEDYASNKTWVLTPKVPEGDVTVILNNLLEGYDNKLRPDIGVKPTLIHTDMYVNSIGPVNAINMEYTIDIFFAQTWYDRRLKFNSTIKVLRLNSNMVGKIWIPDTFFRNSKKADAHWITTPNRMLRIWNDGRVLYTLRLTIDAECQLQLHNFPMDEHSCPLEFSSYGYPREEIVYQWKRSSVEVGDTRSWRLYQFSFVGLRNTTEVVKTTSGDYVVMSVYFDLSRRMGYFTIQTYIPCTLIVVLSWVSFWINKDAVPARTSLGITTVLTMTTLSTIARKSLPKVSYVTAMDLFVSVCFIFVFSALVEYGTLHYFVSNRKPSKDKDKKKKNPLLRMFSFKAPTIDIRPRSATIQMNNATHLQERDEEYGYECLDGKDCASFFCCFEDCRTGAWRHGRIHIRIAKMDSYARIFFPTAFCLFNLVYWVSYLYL
Sequence (P28472 whole entry): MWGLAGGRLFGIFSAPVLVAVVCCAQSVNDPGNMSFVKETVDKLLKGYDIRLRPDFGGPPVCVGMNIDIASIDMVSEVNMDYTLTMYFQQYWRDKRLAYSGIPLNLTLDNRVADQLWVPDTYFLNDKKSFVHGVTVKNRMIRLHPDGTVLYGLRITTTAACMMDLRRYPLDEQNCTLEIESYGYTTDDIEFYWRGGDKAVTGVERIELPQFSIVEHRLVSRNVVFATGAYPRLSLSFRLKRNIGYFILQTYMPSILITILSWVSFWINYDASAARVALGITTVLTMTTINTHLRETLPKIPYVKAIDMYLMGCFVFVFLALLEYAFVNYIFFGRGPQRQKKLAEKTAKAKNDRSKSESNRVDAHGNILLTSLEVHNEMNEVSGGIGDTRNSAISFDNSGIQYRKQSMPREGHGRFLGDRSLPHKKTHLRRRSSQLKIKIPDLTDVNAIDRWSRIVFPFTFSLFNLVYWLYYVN
Sequence (P47869 whole entry): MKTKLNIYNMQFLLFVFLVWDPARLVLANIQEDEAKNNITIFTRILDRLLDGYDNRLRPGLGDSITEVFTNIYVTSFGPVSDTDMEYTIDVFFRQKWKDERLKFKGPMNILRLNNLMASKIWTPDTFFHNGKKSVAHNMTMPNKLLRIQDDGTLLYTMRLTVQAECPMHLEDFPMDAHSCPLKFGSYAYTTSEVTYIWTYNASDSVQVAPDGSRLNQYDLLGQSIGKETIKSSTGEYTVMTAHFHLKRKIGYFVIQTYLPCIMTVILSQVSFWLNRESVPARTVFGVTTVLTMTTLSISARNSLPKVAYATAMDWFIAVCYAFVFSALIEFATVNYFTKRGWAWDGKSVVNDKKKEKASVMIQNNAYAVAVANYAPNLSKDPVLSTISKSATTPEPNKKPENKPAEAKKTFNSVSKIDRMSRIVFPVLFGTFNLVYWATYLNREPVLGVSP
protocol-summary: Binding affinity to human gamma-amino butyric-acid A receptor alpha-2-beta-3-gamma-2, using a [3H]-Ro- 15-1788 radioligand
measured-metric: log10 of Ki (log10 of the value in nM)

1. CC1(C)CC(=O)c2c(Sc3cccs3)sc(-c3cc[nH]n3)c2C1; 0.88
2. CC1(C)CC(=O)c2c(Sc3nccs3)sc(-c3nccs3)c2C1; 1.59
3. CSc1sc(-c2cncs2)c2c1C(=O)CC(C)(C)C2; 2.21
4. CCCSc1sc(-c2cc[nH]n2)c2c1C(=O)CC(C)(C)C2; 1.45
5. CCCCSc1sc(-c2cc[nH]n2)c2c1C(=O)CC(C)(C)C2; 2.26
6. CC1(C)CC(=O)c2c(Sc3nccs3)sc(-c3cc[nH]n3)c2C1; 1.28
7. CC(C)Nc1sc(-c2cc[nH]n2)c2c1C(=O)CC(C)(C)C2; 1.64

###

system-tested: GABA-A receptor; alpha-3/beta-3/gamma-2 (Homo sapiens, UniProt P18507+P28472+P34903)
protocol-summary: Binding affinity to human gamma-amino butyric-acid A receptor alpha-3-beta-3-gamma-2, using a [3H]-Ro- 15-1788 radioligand
Binary call on Ki with cut-off 70 nM: strictly below means MET, and equality or higher means NOT MET.

1) CC1(C)CC(=O)c2csc(-c3cc[nH]n3)c2C1; NOT MET
2) CC1(C)CC(=O)c2c(SCCCO)sc(-c3cc[nH]n3)c2C1; MET
3) CC1(C)CC(=O)c2c(SCCCO)sc(-c3nccs3)c2C1; MET
4) CNc1sc(-c2cc[nH]n2)c2c1C(=O)CC(C)(C)C2; NOT MET
5) CC1(C)CC(=O)c2c(SC(C)(C)C)sc(-c3cc[nH]n3)c2C1; NOT MET
6) COc1sc(-c2cc[nH]n2)c2c1C(=O)CC(C)(C)C2; NOT MET
7) CC1(C)CC(=O)c2c(Sc3cccs3)sc(-c3cc[nH]n3)c2C1; MET
8) CSc1sc(-c2ncn(C)n2)c2c1C(=O)CC(C)(C)C2; NOT MET
9) CC(C)Nc1sc(-c2cc[nH]n2)c2c1C(=O)CC(C)(C)C2; NOT MET
10) CC1(C)CC(=O)c2c(NCCO)sc(-c3cc[nH]n3)c2C1; NOT MET
11) CCCCSc1sc(-c2cc[nH]n2)c2c1C(=O)CC(C)(C)C2; NOT MET
12) CSc1sc(-c2ccccc2)c2c1C(=O)CC(C)(C)C2; NOT MET
13) CCCSc1sc(-c2cc[nH]n2)c2c1C(=O)CC(C)(C)C2; MET
14) CSc1sc(-c2ccc[nH]2)c2c1C(=O)CC(C)(C)C2; NOT MET
15) CCc1sc(-c2cc[nH]n2)c2c1C(=O)CC(C)(C)C2; NOT MET
16) CC1(C)CC(=O)c2c(Sc3nccs3)sc(-c3cc[nH]n3)c2C1; MET
17) CC1(C)CC(=O)c2c(Sc3nccs3)sc(-c3nccs3)c2C1; MET
18) CSc1sc(-c2cncs2)c2c1C(=O)CC(C)(C)C2; NOT MET
19) CSc1sc(-c2nc(C)no2)c2c1C(=O)CC(C)(C)C2; NOT MET
